Every entry's value here was drawn from patent US7932389B2.

tested_target: Recombinant human 92 kDa gelatinase (MMP-9) (Homo sapiens, UniProt P14780)
Sequence (P14780 107-707 limits assumed): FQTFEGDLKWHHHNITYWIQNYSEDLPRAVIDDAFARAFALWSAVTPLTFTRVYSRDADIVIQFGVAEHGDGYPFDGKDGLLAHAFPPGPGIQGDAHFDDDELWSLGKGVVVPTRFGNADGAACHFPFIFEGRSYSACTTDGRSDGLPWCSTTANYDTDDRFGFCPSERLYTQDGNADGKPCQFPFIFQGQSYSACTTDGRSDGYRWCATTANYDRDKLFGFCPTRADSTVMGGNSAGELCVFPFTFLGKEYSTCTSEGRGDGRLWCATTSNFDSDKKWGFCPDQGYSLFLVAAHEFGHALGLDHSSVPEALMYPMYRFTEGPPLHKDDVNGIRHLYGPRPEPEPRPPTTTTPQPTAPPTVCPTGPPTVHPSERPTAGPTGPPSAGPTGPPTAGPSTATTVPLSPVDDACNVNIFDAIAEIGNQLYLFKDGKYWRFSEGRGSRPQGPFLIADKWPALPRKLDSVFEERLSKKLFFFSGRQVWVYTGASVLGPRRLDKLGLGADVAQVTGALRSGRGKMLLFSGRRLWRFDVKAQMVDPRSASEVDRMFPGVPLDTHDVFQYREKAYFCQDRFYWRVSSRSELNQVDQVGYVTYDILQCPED
assay_notes: MMP-9 enzyme inhibition assay, coumarin-labeled peptide substrate McaPLGLDpaAR
endpoint_name: pIC50
Keep in mind that pIC50 stands for -log10 of concentration in molar terms.

Would you please look over these solved cases?
COc1ccc(S(=O)(=O)N2[C@H](C(=O)NO)C[C@@H]3CCN(C(=O)c4ccc(-c5ccccc5)cc4)C[C@@H]32)cc1 (relative stereo)    5.80
COc1ccc(S(=O)(=O)N2[C@H](C(=O)NO)C[C@@H]3CCN(C(=O)CCc4ccccc4)C[C@@H]32)cc1 (relative stereo)    7.39
CCN(CC)C(=O)CN1CC[C@H]2C[C@@H](C(=O)NO)N(S(=O)(=O)c3ccc(OC)cc3)[C@H]2C1 (relative stereo)    5.82
COc1ccc(S(=O)(=O)N2[C@H](C(=O)NO)C[C@@H]3CCN(C(C)=O)C[C@@H]32)cc1 (relative stereo)    6.82

I would be grateful if you could share the reported pIC50 for COc1ccc(S(=O)(=O)N2CC[C@H]3C[C@@H](C(=O)NO)N(S(=O)(=O)c4ccc(OC)cc4)[C@H]3C2)cc1 (relative stereo) .
5.74

Can you look up the measured pIC50 of COc1ccc(S(=O)(=O)N2[C@H](C(=O)NO)C[C@@H]3CCN(C(=O)CCC4CCCC4)C[C@@H]32)cc1 (relative stereo) for me?
6.11

I am curious: what pIC50 value has been reported for COc1ccc(S(=O)(=O)N2[C@H](C(=O)NO)C[C@@H]3CCN(C(=O)c4ccccc4)C[C@@H]32)cc1 (relative stereo) ?
5.77

Any idea what its pIC50 is? The compound is COc1ccc(S(=O)(=O)N2[C@H](C(=O)NO)C[C@@H]3CCN(C(=O)C4CCCC4)C[C@@H]32)cc1 (relative stereo)
5.96

###

Consider the following log10 of IC50 values measured on metalloelastase (MMP-12) (Homo sapiens, UniProt P39900).
Sequence (P39900 106-470): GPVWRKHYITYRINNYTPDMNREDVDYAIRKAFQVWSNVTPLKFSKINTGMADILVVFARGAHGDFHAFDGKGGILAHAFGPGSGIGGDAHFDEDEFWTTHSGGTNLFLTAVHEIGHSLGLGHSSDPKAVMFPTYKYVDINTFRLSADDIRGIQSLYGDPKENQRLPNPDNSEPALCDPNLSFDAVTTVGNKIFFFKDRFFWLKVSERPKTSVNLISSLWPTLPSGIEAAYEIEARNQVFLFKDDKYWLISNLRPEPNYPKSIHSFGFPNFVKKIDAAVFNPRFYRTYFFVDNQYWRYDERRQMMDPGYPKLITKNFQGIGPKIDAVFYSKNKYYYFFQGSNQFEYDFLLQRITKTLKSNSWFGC
// do not treat as linear: log10 of IC50, unit nM

Reference set (5 entries):
COc1ccc(S(=O)(=O)N2CC[C@H]3C[C@@H](C(=O)NO)N(S(=O)(=O)c4ccc(OC)cc4)[C@H]3C2)cc1 (relative stereo) [Example 10]    2.98
COc1ccc(S(=O)(=O)N2[C@H](C(=O)NO)C[C@@H]3CCN(C(=O)c4ccc(-c5ccccc5)cc4)C[C@@H]32)cc1 (relative stereo) [Example 12]    3.08
COc1ccc(S(=O)(=O)N2[C@H](C(=O)NO)C[C@@H]3CCN(C(=O)Nc4ccccc4)C[C@@H]32)cc1 (relative stereo) [Example 16]    2.53
COc1ccc(S(=O)(=O)N2[C@H](C(=O)NO)C[C@@H]3CCN(C(=O)C4CCCC4)C[C@@H]32)cc1 (relative stereo) [Example 7]    2.79
CS(=O)(=O)N1CC[C@H]2C[C@@H](C(=O)NO)N(S(=O)(=O)c3ccc(Oc4ccncc4)cc3)[C@H]2C1 (relative stereo) [Example 11]    1.90

// lookup log10 of IC50 | system=metalloelastase (MMP-12) (Homo sapiens, UniProt P39900) | key= COc1ccc(S(=O)(=O)N2[C@H](C(=O)NO)C[C@@H]3CCN(C(C)=O)C[C@@H]32)cc1 (relative stereo) [Example 2]
2.11

###

tested_target: Recombinant human 92 kDa gelatinase (MMP-9) (Homo sapiens)
assay_notes: MMP-9 enzyme inhibition assay, coumarin-labeled peptide substrate McaPLGLDpaAR
endpoint_name: IC50 (µM)
Express your answer in µM, writing the number without its unit.

Below, each entry is followed by its recorded IC50 result.
COc1ccc(S(=O)(=O)N2[C@H](C(=O)NO)C[C@@H]3CCN(C(=O)Nc4ccccc4)C[C@@H]32)cc1 (relative stereo) [Example 16]    0.43
COCCOC(=O)N1CC[C@H]2C[C@@H](C(=O)NO)N(S(=O)(=O)c3ccc(OC)cc3)[C@H]2C1 (relative stereo) [Example 5]    1.5
COc1ccc(S(=O)(=O)N2[C@H](C(=O)NO)C[C@@H]3CCN(C(=O)OCc4ccccc4)C[C@@H]32)cc1 (relative stereo) [Example 18]    0.68

Please find the next molecule below.
Need IC50, item CS(=O)(=O)N1CC[C@H]2C[C@@H](C(=O)NO)N(S(=O)(=O)c3ccc(Oc4ccncc4)cc3)[C@H]2C1 (relative stereo) [Example 11]
0.87
